Origin of values: patent US20200399369A1

Molecular target: T1, cynomolgus monkey CD38 (cynomolgus monkey, UniProt Q5VAN0 44-301, limits assumed)
T1 construct: also called Cyno CD38; cynoCD38
Assay: ELISA
outcome-measure: pEC50
// pEC50: -log10(molar conc.)

Determine from records and report pEC50 for AntiCD38_hhy_1195 (antibody, V domains shown) VH: QVQLVESGGGVVQPGRSLRLSCAASGFTFSSYGMYWVRQAPGKGLEWVAVIWYDGSNKYYADSVKGRFTISRDNSKNTLYLQMNSLRAEDTAVYHCARDPGLRYFDGGMDVWGQGTTVTVSS VL: DIQLTQSPSFLSASVGDRVTITCRASQGISSYLAWYQQKPGKAPKLLIFAASTLHSGVPSRFSGSGSGTEFTLTISSLQPEDFATYYCQQLNSFPYTFGQGTKLEIK
9.07

Return reported pEC50. Input binder: AntiCD38_hyb_6284 (antibody, V domains shown) VH: QVQLLQSGAELVRPGVSVKISCTGSGYSFTNYAVHWVKQSHVKSLEWIGVISPYYGDTTYNQKFTGKATMTVDKSSSTAYMELARLTSEDSAIYFCARRFEGFYYSMDYWGQGTSVTVSS VL: DVVMIQTPLSLPVSLGDQASISCRPSQSLVHSNGNTYLNWYLQRPGQSPKLLIYKVSKRFSGVPDRFSGSGSGTDFTLKISRVEAEDLGVYLCSQSTHVPLTFGSGTQLEIK
9.89

Tell us which pEC50 value is on record for AntiCD38_hhy_992 (antibody, V domains shown) VH: QVQLVQSGAEVKKPGASVKVSCKVSGYTLTEFSIHWVRQAPGQGLEWMGGFDPEDGETIYAQKFQGRVIMTEDTSTDTAYMEMNSLRSEDTAIYYCTTGRFFDWFWGQGTLVTVSS VL: EIILTQSPAILSLSPGERATLSCRASQSVISRFLSWYQVKPGLAPRLLIYGASTRATGIPVRFSGSGSGTDFSLTISSLQPEDCAVYYCQQDSNLPITFGQGTRLEIK
10.10

Please indicate pEC50 recorded for AntiCD38_hyb_5739 (antibody, V domains shown) VH: QVQLQQSGPELVRPGTSVKVSCKASGYAFTTYLVEWIKQRPGQGLEWIGVINPGSGSTNYNEKFKGKATLTVDRSSTTAYMHLSGLTSDDSAVYFCARYAYGYWGQGTTLTVSS VL: DIVMTQSQKFMSASVGDRVSITCKASQNVGTAVAWYQQQPGHSPKQLIYSASNRYTGVPDRFTGSGAGTDFTLTISNIQSEDLADYFCQQYSTYPFTFGSGTKLEIK
10.05
